Data origin: paper PMC11649115

Test system: CYP3A4 mRNA
Test: CYP induction, mRNA, primary cultured human hepatocytes
Assay type: in vitro ADME
Conditions: human, primary cultured human hepatocytes, Lot 336, 5 μM; read-out: CYP3A4 mRNA Fold Induction (fold of vehicle control)
measure: fold induction at 48 h, 5 µM
Give bare numbers.

Query: Which fold induction at 48 h, 5 µM reading was recorded for the molecule CCc1cc(Cl)c(OC)c(N2CCN(CC(O)CCNC(=O)c3cc4ccccc4[nH]3)CC2)c1 (stereo not shown) ?
Response: 4

---

Experiment: Metabolic stability in hepatocyte
Conditions: Sprague Dawley, rat, hepatocytes
measure: hepatocyte CLint at 10 μM (µL/min/1e6 cells)
Answers are plain numbers, in µL/min/1e6 cells.

Query: Entry under review: Cc1ncc2n1-c1ccc(Cl)cc1C(c1ccccc1F)=NC2 [Midazolam, reference compound] . Reported hepatocyte CLint at 10 μM?
Response: 7.2

---

Assay: Metabolic stability in liver microsomes
Settings: monkey, liver microsomes, pH 7.4
measure: remaining at 1 h, 1 μM (%)
Give bare numbers, in %.

Query: Field request: remaining at 1 h, 1 μM | item: CCc1cc(Cl)c(OC)c(N2CCN(CC(O)CCNC(=O)c3cc4ccccc4[nH]3)CC2)c1 (stereo not shown)
Response: 21.2

---

System: CYP3A4 mRNA
Assay: CYP induction, mRNA, primary cultured human hepatocytes
Assay type: in vitro ADME
Details: human, primary cultured human hepatocytes, Lot 336, 10 μM; read-out: CYP3A4 mRNA Fold Induction (fold of vehicle control)
measure: fold induction at 48 h, 10 µM
Answers are plain numbers.

Query: Quick one: fold induction at 48 h, 10 µM of CCc1cc(Cl)c(OC)c(N2CCN(CC(O)CCNC(=O)c3cc4ccccc4[nH]3)CC2)c1 (stereo not shown) [R-VK4-116] ?
Response: 3.7

---

Target: OATP1B3 (Homo sapiens)
Construct: expressed in transfected cells; host or cells: MDCK-II cells
Sequence (Q9NPD5 1-702): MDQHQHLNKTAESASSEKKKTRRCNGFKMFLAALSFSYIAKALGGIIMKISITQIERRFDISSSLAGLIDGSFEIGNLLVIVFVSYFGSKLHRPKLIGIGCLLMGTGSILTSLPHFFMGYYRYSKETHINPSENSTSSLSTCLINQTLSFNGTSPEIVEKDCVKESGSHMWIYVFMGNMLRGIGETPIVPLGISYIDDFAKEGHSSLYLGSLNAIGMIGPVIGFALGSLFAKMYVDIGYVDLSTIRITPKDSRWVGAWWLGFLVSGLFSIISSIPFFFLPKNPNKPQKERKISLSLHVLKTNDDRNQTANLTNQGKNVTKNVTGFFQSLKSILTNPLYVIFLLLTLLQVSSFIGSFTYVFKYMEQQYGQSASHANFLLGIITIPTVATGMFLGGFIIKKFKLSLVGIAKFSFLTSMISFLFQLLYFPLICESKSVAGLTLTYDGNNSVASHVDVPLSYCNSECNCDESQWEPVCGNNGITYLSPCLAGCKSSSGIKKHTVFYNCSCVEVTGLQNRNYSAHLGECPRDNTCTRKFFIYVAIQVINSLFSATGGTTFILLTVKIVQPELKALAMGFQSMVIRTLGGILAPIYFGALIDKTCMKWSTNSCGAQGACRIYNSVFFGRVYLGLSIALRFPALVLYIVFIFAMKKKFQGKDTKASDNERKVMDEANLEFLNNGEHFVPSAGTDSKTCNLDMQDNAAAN
Test: Transporter mediated assay (substrate/inhibitor), MDCK-II cells
Format: in vitro ADME
Details: human, polarized monolayer of MDCK-II cells expressing OATP1B3; OATP1B3, No BSA, 100 μM
measure: inhibition at 100 µM
Please make sure the unit comes right after the number.

Query: For CO[C@H]1/C=C/O[C@@]2(C)Oc3c(C)c(O)c4c(O)c(c(/C=N/N5CCN(C)CC5)c(O)c4c3C2=O)NC(=O)/C(C)=C\C=C\[C@H](C)[C@H](O)[C@@H](C)[C@@H](O)[C@@H](C)[C@H](OC(C)=O)[C@@H]1C [Rifampicin, reference compound] , what is its reported inhibition at 100 µM?
Response: 99.2%

---

Test system: CYP2B6 mRNA
Test: CYP induction, mRNA, primary cultured human hepatocytes
Conditions: primary cultured human hepatocytes, Fold Induction (CYP2B6 mRNA expression), hepatocyte Lot 336, 10 µM
measure: fold induction at 48 h, 10 µM

Query: Which fold induction at 48 h, 10 µM reading was recorded for the compound CCc1cc(Cl)c(OC)c(N2CCN(CC(O)CCNC(=O)c3cc4ccccc4[nH]3)CC2)c1 (stereo not shown) ?
Response: 1.9

---

Assay: Metabolic stability in hepatocyte
Settings: Beagle, dog, hepatocytes in suspension
measure: half-life at 10 μM (h)
Numbers only, in h.

Query: // returns reported half-life at 10 μM for input CCc1cc(Cl)c(OC)c(N2CCN(CC(O)CCNC(=O)c3cc4ccccc4[nH]3)CC2)c1 (stereo not shown)
Response: 5.78

---

Target: CYP2D6 (Homo sapiens, UniProt P10635)
Sequence (P10635 whole entry): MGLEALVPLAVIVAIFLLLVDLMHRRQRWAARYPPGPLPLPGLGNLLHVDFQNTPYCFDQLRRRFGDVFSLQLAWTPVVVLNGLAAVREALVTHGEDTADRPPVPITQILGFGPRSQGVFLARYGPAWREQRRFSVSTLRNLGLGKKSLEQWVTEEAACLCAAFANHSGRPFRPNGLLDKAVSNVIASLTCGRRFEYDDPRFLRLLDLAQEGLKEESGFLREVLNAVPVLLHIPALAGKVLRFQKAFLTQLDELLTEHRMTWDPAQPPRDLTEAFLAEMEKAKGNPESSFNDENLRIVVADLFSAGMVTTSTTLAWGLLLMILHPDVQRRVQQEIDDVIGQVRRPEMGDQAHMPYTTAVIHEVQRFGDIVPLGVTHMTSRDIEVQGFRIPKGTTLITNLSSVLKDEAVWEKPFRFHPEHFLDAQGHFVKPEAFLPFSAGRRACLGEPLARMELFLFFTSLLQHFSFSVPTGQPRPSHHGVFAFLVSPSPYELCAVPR
Assay: CYP inhibition in human liver microsomes
Conditions: human, human liver microsomes, probe bufuralol
measure: activity at 20 min, 0.1 µM (%)
Answers are plain numbers, in %.

Query: // activity at 20 min, 0.1 µM lookup, key: CCc1cc(Cl)c(OC)c(N2CCN(CC(O)CCNC(=O)c3cc4ccccc4[nH]3)CC2)c1 (stereo not shown) [R-VK4-116]
Response: 92.6

---

Target: OAT1 (Homo sapiens, UniProt Q4U2R8)
Construct: expressed in transfected cells; host or cells: MDCK-II cells
Sequence (Q4U2R8 whole entry): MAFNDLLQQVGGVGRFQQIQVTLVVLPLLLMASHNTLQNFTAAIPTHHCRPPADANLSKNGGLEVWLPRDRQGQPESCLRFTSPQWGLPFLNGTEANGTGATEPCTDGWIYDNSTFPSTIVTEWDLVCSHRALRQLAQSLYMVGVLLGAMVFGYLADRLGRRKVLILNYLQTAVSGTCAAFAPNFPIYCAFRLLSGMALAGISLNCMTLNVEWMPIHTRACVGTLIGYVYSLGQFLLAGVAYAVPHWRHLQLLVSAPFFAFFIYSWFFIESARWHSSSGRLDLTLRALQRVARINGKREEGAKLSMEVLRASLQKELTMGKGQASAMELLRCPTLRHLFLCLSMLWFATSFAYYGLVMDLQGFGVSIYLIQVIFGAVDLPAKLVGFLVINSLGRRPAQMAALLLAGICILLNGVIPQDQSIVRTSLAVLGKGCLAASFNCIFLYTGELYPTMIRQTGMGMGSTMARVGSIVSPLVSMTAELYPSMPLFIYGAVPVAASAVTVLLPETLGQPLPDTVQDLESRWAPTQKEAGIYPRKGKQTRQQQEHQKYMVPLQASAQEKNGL
Assay: Transporter mediated assay (substrate/inhibitor), MDCK-II cells
Type: in vitro ADME
Settings: human, polarized monolayer of MDCK-II cells expressing OAT1; OAT1, 0.1% BSA, 10 μM
measure: inhibition at 10 µM (%)
Numbers only, in %.

Query: Entry under review: CCc1cc(Cl)c(OC)c(N2CCN(CC(O)CCNC(=O)c3cc4ccccc4[nH]3)CC2)c1 (stereo not shown) . Reported inhibition at 10 µM?
Response: 8.97

---

Test: Metabolic stability in hepatocyte
Conditions: Sprague Dawley, rat, hepatocytes
measure: half-life at 10 μM

Query: Quick check: half-life at 10 μM of Cc1ncc2n1-c1ccc(Cl)cc1C(c1ccccc1F)=NC2 [Midazolam, reference compound] ?
Response: 3.22 h

---

Experiment: Metabolic stability in liver microsomes
Details: human, liver microsomes, pH 7.4
measure: remaining at 1.5 h, 10 μM
Enter the number, and then the unit.

Query: Looking for the measured remaining at 1.5 h, 10 μM of CCc1cc(Cl)c(OC)c(N2CCN(CC(O)CCNC(=O)c3cc4ccccc4[nH]3)CC2)c1 (stereo not shown) , can you help?
Response: 55.5%

---

Molecular target: OAT3 (Homo sapiens)
Construct: expressed in transfected cells; host or cells: MDCK-II cells
Sequence (Q8TCC7 whole entry): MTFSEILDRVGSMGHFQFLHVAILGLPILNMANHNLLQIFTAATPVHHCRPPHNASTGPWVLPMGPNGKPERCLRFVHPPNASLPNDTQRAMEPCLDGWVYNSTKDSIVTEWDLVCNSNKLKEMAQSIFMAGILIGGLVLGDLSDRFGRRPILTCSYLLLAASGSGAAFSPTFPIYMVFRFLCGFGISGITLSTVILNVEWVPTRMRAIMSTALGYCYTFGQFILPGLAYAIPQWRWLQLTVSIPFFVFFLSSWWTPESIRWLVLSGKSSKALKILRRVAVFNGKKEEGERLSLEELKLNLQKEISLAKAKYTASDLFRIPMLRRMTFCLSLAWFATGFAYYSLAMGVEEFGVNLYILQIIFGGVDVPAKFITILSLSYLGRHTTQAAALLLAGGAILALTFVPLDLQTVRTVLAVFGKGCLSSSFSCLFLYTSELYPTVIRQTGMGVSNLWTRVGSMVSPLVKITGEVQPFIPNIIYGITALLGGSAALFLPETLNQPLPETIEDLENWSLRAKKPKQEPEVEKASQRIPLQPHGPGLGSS
Assay: Transporter mediated assay (substrate/inhibitor), MDCK-II cells
Format: in vitro ADME
Conditions: human, polarized monolayer of MDCK-II cells expressing OAT3; OAT3, 0.1% BSA, 10 μM
measure: inhibition at 10 µM

Query: // lookup inhibition at 10 µM for CCc1cc(Cl)c(OC)c(N2CCN(CC(O)CCNC(=O)c3cc4ccccc4[nH]3)CC2)c1 (stereo not shown)
Response: -5.73%

---

Assay: Plasma protein binding, Sephadex G-25 gel filtration
Format: in vitro ADME, human
Details: human, plasma, human plasma, nominal 0.5 μM; read-out: % Bound (converted)
measure: fraction unbound at 2 h, 0.5 μM
Give bare numbers.

Query: Look up fraction unbound at 2 h, 0.5 μM: CCc1cc(Cl)c(OC)c(N2CCN(CC(O)CCNC(=O)c3cc4ccccc4[nH]3)CC2)c1 (stereo not shown)
Response: 0.026

---

Target: CYP3A4 (Homo sapiens, UniProt P08684)
Sequence (P08684 whole entry): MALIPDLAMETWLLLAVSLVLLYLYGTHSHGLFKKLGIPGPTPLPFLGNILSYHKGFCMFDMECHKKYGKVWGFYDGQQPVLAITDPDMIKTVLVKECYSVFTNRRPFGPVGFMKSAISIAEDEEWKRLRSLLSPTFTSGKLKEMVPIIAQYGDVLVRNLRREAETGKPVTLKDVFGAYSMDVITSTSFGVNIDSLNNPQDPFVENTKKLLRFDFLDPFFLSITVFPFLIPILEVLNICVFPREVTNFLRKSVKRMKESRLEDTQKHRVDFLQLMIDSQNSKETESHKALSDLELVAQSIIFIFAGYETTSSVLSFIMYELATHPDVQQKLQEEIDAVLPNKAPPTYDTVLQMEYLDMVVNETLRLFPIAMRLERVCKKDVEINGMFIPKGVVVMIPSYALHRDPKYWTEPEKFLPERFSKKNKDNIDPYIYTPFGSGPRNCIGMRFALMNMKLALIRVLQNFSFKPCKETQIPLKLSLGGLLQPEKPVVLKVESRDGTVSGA
Experiment: CYP phenotyping, recombinant CYP
Format: in vitro ADME
Set-up: purchased XenoTech, LLC, Kansas City, KS; host or cells: bactosomes (bacterial membranes)
Conditions: recombinant CYP3A4, pH 7.4, incubated with CYP3A4, 1 μM, 120 min
measure: remaining at 2 h, 1 μM (%)
Give bare numbers, in %.

Query: # lookup: remaining at 2 h, 1 μM of CCc1cc(Cl)c(OC)c(N2CCN(CC(O)CCNC(=O)c3cc4ccccc4[nH]3)CC2)c1 (stereo not shown)
Response: 25.6

---

System: CYP1A2 mRNA
Test: CYP induction, mRNA, primary cultured human hepatocytes
Format: in vitro ADME
Settings: Lot 348B, 0.1 μM, read-out: CYP1A2 mRNA Fold Induction (fold of vehicle control)
measure: fold induction at 48 h, 0.1 µM
Answers are plain numbers.

Query: Request - read-out fold induction at 48 h, 0.1 µM | tested on CYP1A2 mRNA | molecule CCc1cc(Cl)c(OC)c(N2CCN(CC(O)CCNC(=O)c3cc4ccccc4[nH]3)CC2)c1 (stereo not shown)
Response: 1.4

---

Molecular target: UniProtKB P11712
Sequence (P11712 whole entry): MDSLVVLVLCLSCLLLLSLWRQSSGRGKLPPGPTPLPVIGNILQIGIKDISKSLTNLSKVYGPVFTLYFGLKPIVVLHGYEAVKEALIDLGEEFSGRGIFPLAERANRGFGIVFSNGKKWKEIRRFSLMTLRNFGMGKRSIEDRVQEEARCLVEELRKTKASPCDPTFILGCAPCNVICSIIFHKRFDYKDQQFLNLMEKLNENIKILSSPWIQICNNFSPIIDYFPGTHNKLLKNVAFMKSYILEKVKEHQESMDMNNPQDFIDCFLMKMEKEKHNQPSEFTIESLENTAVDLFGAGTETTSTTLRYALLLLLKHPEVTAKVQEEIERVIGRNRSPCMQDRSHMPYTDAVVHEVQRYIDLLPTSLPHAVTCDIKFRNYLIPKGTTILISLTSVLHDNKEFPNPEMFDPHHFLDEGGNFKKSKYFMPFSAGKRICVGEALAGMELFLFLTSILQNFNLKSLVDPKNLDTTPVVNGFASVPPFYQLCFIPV
Test: CYP inhibition in human liver microsomes
Conditions: human, human liver microsomes, probe diclofenac
measure: activity at 20 min, 2 µM (%)
Answers are plain numbers, in %.

Query: Entry under review: C=C[C@H]1C[N@@]2CC[C@H]1C[C@@H]2[C@@H](O)c1ccnc2ccc(OC)cc12 [quinidine, reference compound] . Reported activity at 20 min, 2 µM?
Response: 82.7
